Property: TC50 cytotoxicity; scope: individual compounds
Tested on: DLD1 NRF2-GOF
Protocol description: TC50 cytotoxicity; higher = less toxic
Condition context: 72 h; CellTox Green cytotoxicity
Observable: TC50 cytotoxicity

- Given smiles: "CC(C)(C)c1cnc(CSc2cnc(NC(=O)C3CCNCC3)s2)o1"
  Result: "> 10 µM"
- Given smiles: "O=C(O)CC[C@H]1CC[C@@](c2cc(F)ccc2F)(S(=O)(=O)c2ccc(Cl)cc2)CC1"
  Result: "> 1 µM"
- Given smiles: "COc1cc(Nc2ncc3c(n2)-c2ccc(Cl)cc2C(c2c(F)cccc2OC)=NC3)ccc1C(=O)O"
  Result: "0.205 µM"
- Given smiles: "Nc1nc(N)c2nc(-c3cccc(O)c3)c(-c3cccc(O)c3)nc2n1"
  Result: "> 10 µM"
- Given smiles: "Nc1nc(NC2CC2)cc(-c2cccc(Cl)c2Cl)n1"
  Result: "> 25 µM"

====

Property: EC50 viability; scope: individual molecules
System: DLD1 NRF2-WT
Condition context: 72 h; CellTiter-Glo viability

- Molecule: "CNc1ncc2cc(-c3cc(NC(=O)NCCC(C)(C)C)c(F)cc3C)c(C)nc2n1"
  Assayed system: "DLD1 NRF2-WT"
  Unit of measure: "nM"
  Bound type: "="
  EC50 viability: 496
- Molecule: "COc1c(C)cnc(Cn2cnc3c(Cl)nc(N)nc32)c1C"
  Assayed system: "DLD1 NRF2-WT"
  Unit of measure: "nM"
  Bound type: "="
  EC50 viability: 149
- Molecule: "CO[C@H]1C[C@@H]2CC[C@@H](C)[C@@](O)(O2)C(=O)C(=O)N2CCCC[C@H]2C(=O)O[C@H]([C@H](C)C[C@@H]2CC[C@@H](OCCO)[C@H](OC)C2)CC(=O)[C@H](C)/C=C(\\C)[C@@H](O)[C@@H](OC)C(=O)[C@H](C)C[C@H](C)/C=C/C=C/C=C/1C"
  Assayed system: "DLD1 NRF2-WT"
  Unit of measure: "nM"
  Bound type: "="
  EC50 viability: 11.7
- Molecule: "Nc1cc(F)ccc1NC(=O)c1ccc(CNC(=O)/C=C/c2cccnc2)cc1 [Chidamide]"
  Assayed system: "DLD1 NRF2-WT"
  Unit of measure: "nM"
  Bound type: ">"
  EC50 viability: 10000
- Molecule: "CN(C)C[C@@H]1CCn2cc(c3ccccc32)C2=C(C(=O)NC2=O)c2cn(c3ccccc23)CCO1"
  Assayed system: "DLD1 NRF2-WT"
  Unit of measure: "nM"
  Bound type: "="
  EC50 viability: 2080
- Molecule: "Cc1cc(-c2nc(-c3ccc(OC(F)(F)F)cc3)no2)nn1Cc1ccnc(N2CCN(C3CC3)CC2)c1"
  Assayed system: "DLD1 NRF2-WT"
  Unit of measure: "nM"
  Bound type: "="
  EC50 viability: 0.9
- Molecule: "CC(C)n1cnc2c(NCCc3ccc(O)cc3)nc(-c3csc4ccccc34)nc21"
  Assayed system: "DLD1 NRF2-WT"
  Unit of measure: "nM"
  Bound type: "="
  EC50 viability: 855
- Molecule: "O=C(Nc1cccc(NC(=O)c2cccc(O)c2O)c1)c1cccc(O)c1O"
  Assayed system: "DLD1 NRF2-WT"
  Unit of measure: "nM"
  Bound type: "="
  EC50 viability: 238
